# TARGET_UNDER_TEST: extracellular domain of human GPVI (human) (UniProt Q9HCN6)
# PROTOCOL_NOTES: SPR (Biacore 3000), human GPVI immobilised by amine coupling, Fab as analyte
Listed binders paired with reported pKd
// scale note: pKd = -log10(conc_M); give the bare number

Worked cases, answers included:
{"BINDER": "humanized anti-GPVI Fab VL1/VH2 (Fab, V domains shown) VH: QVQLQESGPGLVAPSQSLSITCTVSGFSLTGYGVNWVRQPPSRGLEWLGMIWGDGSTDYQSTLKSRLSISKDNSKSQVFLKMNSLTTDDTARYYCARDLPMDYWGQGTSVTVSS VL: DIQMTQSPSSLSASVGGRVTITCKASQDINKYIAWYQHKPGKGPSLLIHYTSTLQPGVPSRFSGSGSGRDYSFSISNLQPEDIATYYCLQYANLLTFGGGTKLEIKR", "pKd": 9.70}
{"BINDER": "humanized anti-GPVI Fab VL3/VH4 (Fab, V domains shown) VH: QVQLQESGPGLVAPSQSLSITCTVSGFSLTYYGVNWVRQPPSRGLEWLGMIWGDGSTDYQSTLKSRLSISKDNSKSQVFLKMNSLTTDDTARYYCARDLPMDYWGQGTSVTVSS VL: DIQMTQSPSSLSASVGGRVTITCKASQDINKYIAWYQHKPGKGPSLLIHYTSTLQPGVPSRFSGSGSGRDYSFSISNLQPEDIATYYCLQYALLLTFGGGTKLEIKR", "pKd": 9.52}
{"BINDER": "humanized anti-GPVI Fab VL1/VH1 (Fab, V domains shown) VH: QVQLQESGPGLVAPSQSLSITCTVSGFSLTGYGVNWVRQPPSRGLEWLGMIWGDGSTDYQSTLKSRLSISKDTSKSQVFLKMNSLTTDDTARYYCARDLPMDYWGQGTSVTVSS VL: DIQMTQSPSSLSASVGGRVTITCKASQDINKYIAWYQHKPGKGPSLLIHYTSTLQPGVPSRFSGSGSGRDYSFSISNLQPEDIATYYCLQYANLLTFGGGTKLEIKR", "pKd": 9.40}

Next, consider the following binder.
[Q] Report pKd for humanized anti-GPVI Fab VL1/VH4 (Fab, V domains shown) VH: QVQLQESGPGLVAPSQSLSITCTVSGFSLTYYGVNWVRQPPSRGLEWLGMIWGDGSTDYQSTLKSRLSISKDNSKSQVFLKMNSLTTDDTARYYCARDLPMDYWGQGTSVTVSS VL: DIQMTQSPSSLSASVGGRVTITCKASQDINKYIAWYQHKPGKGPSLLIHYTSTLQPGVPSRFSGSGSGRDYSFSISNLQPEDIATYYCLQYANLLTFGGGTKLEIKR please.
[A] 9.70

Value source: patent EP2402371A1
